target or test system: UniProt:Q92794
Sequence (Q92794 other isoform, or with tags, fused parts or gaps): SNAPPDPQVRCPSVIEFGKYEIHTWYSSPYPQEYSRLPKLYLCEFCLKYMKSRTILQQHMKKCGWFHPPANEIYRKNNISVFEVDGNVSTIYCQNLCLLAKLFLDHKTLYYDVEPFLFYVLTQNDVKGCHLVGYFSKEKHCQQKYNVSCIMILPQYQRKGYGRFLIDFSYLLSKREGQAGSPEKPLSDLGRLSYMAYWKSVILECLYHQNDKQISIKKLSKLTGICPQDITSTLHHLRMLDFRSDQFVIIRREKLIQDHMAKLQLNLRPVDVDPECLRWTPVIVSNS
experiment: KAT-6A biochemical inhibition assay (SAMDI mass spectrometry)
Procedure: KAT-6A. Enzyme assay buffer was 50 mM Tris pH 8.0, 0.002% Tween20, 0.005% bovine skin gelatin, and 1 mM dithiothreitol (DTT). For determination of IC50 values, compounds were serially diluted with 2% (v/v) DMSO in the final reaction, pre-incubating each dilution of each compound with 40 μL of assay buffer containing KAT-6A enzyme (12.5 nM final concentration). 10 μL of assay buffer containing 1 μM peptide substrate and 1 μM acetyl coenzyme A (final concentrations) was added. […]
pIC50: −log10 of the molar value.
What pIC50 was measured for each of the following?

Answered cases to consult:
COCCn1cc(S(=O)(=O)NNC(=O)c2cc(-c3cn(C)cn3)cc(Cl)c2F)cn1 [Compound I-212]; 4.30 to 5.00
CCCS(=O)(=O)N1CC(CS(=O)(=O)NNC(=O)c2cc(-c3cn(C)cn3)cc(Cl)c2F)C1 [Compound I-178]; > 5.00
Cn1cnc(-c2cc(Cl)c(F)c(C(=O)NNS(=O)(=O)C[C@H]3CC[C@H]4CC[C@@H]3N4C(=O)OC(C)(C)C)c2)c1 [Compound I-259]; 4.30 to 5.00
Cn1cnc(-c2cc(Cl)c(F)c(C(=O)NNS(=O)(=O)C[C@@H]3CCCO3)c2)c1 [Compound I-389]; > 5.00
COCCn1cnc(-c2cc(C)c(F)c(C(=O)NNS(=O)(=O)C3CCCCC3)c2)c1 [Compound I-134]; < 4.00

Can you give me pIC50 for all of these, one by one?
1. Cc1cc(-c2cn(C)cn2)cc(C(=O)NNS(=O)(=O)CC2CCOCC2)c1F [Compound I-130]
2. CO[C@H]1CC[C@@H](CS(=O)(=O)NNC(=O)c2cc(-c3cn(C)cn3)cc(Cl)c2F)CC1 [Compound I-353]
3. CCC(=O)N(C)C1CCCC(CS(=O)(=O)NNC(=O)c2cc(-c3cn(C)cn3)cc(Cl)c2F)C1 (stereo not drawn) [Compound I-294]
4. CN1CCC(CS(=O)(=O)NNC(=O)c2cc(-c3cn(C)cn3)cc(Cl)c2F)C1 (stereo not drawn) [Compound I-79]

Output line:
1: 4.30 to 5.00; 2: > 5.00; 3: > 5.00; 4: 4.30 to 5.00
